Here, each record is paired with measured absorption maximum data.
assay: solvent given as SMILES; settings: in C1CCOC1
Reply with just the number (in nm).

CCCCCCc1ccc2c3c(ccc2c1)O[B-](c1ccccc1)(c1ccccc1)[N+](c1ccc([N+]2=Cc4c(ccc5cc(CCCCCC)ccc45)O[B-]2(c2ccccc2)c2ccccc2)cc1)=C3 : 455

Ask: Quick one: absorption maximum for C1=Cc2ccccc2C(=Cc2ccc(-c3cc(-c4ccc(C=C5c6ccccc6C=Cc6ccccc65)cc4)c(-c4ccc(C=C5c6ccccc6C=Cc6ccccc65)cc4)cc3-c3ccc(C=C4c5ccccc5C=Cc5ccccc54)cc3)cc2)c2ccccc21 ?
Reply: 324

Ask: # iterate: O=Cc1cc(O)ccc1O
Reply: 366

Ask: Also CCOC(=O)C(C(=O)OCC)C1=[N+]2C(=C(c3ccc(C)cc3)c3ccc(Cl)n3[B-]2(F)F)C=C1 , if possible.
Reply: 511

Ask: Proceed to CC(C)(C)c1ccc(-c2nc3c4ccccc4c4ccccc4c3n2-c2ccc(C(C)(C)C)cc2)cc1
Reply: 314

Ask: What about C1=C(c2ccccc2)C(c2ccccc2)C(c2ccccc2)=C1 ?
Reply: 304

Ask: Also check CC(C)(C)c1ccc(-c2nc(-c3ccc(C(C)(C)C)cc3)nc(-c3cc(C#N)c(-n4c5ccccc5c5c6oc7ccccc7c6ccc54)c(C#N)c3)n2)cc1
Reply: 397.48

Ask: Try this compound too: N#Cc1ccc(N)c(/C=C/C(F)(F)F)c1
Reply: 348
